Quick list: PBM binding z-score per entry.
tested on: PPARg:RXRa (NR concentration 180 nM, RXRa partner concentration 90 nM); experiment: PBM binding z-score (relative to random genomic background probes); higher = stronger binding; sequences stand for … in GC…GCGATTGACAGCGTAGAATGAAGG

| Biosequence | Experimental system | PBM binding z-score |
| --- | --- | --- |
| GCTTGTAGTTCAAGGTTAAGAAAGACTAAGCTAA | PPARg:RXRa (NR concentration 180 nM, RXRa partner concentration 90 nM) | 0.724 |
| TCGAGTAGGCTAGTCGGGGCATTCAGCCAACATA | PPARg:RXRa (NR concentration 180 nM, RXRa partner concentration 90 nM) | -0.351 |
| TAGCCTAGGTCAGATTGGGCCAGTATACGCTATA | PPARg:RXRa (NR concentration 180 nM, RXRa partner concentration 90 nM) | 0.564 |
| TATCGGAGGACACGAAAGGTCAGAGCTCGACATC | PPARg:RXRa (NR concentration 180 nM, RXRa partner concentration 90 nM) | 2.18 |
| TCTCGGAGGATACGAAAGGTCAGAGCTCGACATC | PPARg:RXRa (NR concentration 180 nM, RXRa partner concentration 90 nM) | 1.75 |
| TCATATAGGTAAACACGTGAAAGTCCGTAAGTTA | PPARg:RXRa (NR concentration 180 nM, RXRa partner concentration 90 nM) | 1.16 |
| TGAATGAGGTTATAAGATCAGAGAACGTTGCAAA | PPARg:RXRa (NR concentration 180 nM, RXRa partner concentration 90 nM) | 1.45 |
| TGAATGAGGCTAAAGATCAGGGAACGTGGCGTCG | PPARg:RXRa (NR concentration 180 nM, RXRa partner concentration 90 nM) | 2.96 |
| CAAACTAGGTCAAAGTTCAAAGTCGAGCCAACCA | PPARg:RXRa (NR concentration 180 nM, RXRa partner concentration 90 nM) | 13.3 |
| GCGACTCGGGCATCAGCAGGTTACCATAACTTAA | PPARg:RXRa (NR concentration 180 nM, RXRa partner concentration 90 nM) | 0.266 |
| CCTAGCAGGCCAGGGCCACTCAAGCATTTCGCTT | PPARg:RXRa (NR concentration 180 nM, RXRa partner concentration 90 nM) | -0.367 |
| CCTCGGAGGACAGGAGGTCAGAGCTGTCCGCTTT | PPARg:RXRa (NR concentration 180 nM, RXRa partner concentration 90 nM) | -0.08 |
| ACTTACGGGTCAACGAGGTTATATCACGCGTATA | PPARg:RXRa (NR concentration 180 nM, RXRa partner concentration 90 nM) | 5.28 |
| GCATATAGGGAATACAAGGTGAAAGTCCGATTGT | PPARg:RXRa (NR concentration 180 nM, RXRa partner concentration 90 nM) | 0.818 |
| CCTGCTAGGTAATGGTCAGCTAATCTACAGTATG | PPARg:RXRa (NR concentration 180 nM, RXRa partner concentration 90 nM) | -0.182 |
| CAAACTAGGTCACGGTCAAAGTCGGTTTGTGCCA | PPARg:RXRa (NR concentration 180 nM, RXRa partner concentration 90 nM) | 9.6 |
| TCTAATTGGTCAAAGGTCACACACTCGAAATGCG | PPARg:RXRa (NR concentration 180 nM, RXRa partner concentration 90 nM) | 10.7 |
| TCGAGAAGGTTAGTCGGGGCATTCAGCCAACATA | PPARg:RXRa (NR concentration 180 nM, RXRa partner concentration 90 nM) | 0.00646 |

// data source = the supplement of paper PMC6555819
